Each entry below lists one item and its recorded melting point value.
readout: melting point

>>> reported("CON1CCC2(CC1)NC(=O)C(c1ccc(C3CC3)cc1Cl)C2=O (centres unmarked)")
"206 to 207 °C"
>>> reported("C=COC(=O)OC1=C(c2cc(C)ccc2C)C(=O)NC12CCN(OC)CC2")
"162 to 164 °C"
>>> reported("CCON1CCC2(CC1)NC(=O)C(c1cc(C)ccc1C)=C2OC(=O)C(C)(C)C")
"169 to 170 °C"
>>> reported("CON1CCC2(CC1)NC(=O)C(c1ccc(C3CC3)cc1Cl)=C2OC(=O)C(C)(C)C")
"195 to 197 °C"
>>> reported("CCOC(=O)OC1=C(c2ccc(C3CC3)cc2Cl)C(=O)NC12CCN(OC)CC2")
"190 to 192 °C"
>>> reported("CCOC(=O)OC1=C(c2ccc(Cl)cc2Cl)C(=O)NC12CCN(OCC)CC2")
"183 to 184 °C"
>>> reported("CON1CCC2(CC1)NC(=O)C(c1c(Cl)cccc1Cl)C2=O (centres unmarked)")
"257 to 260 °C"
>>> reported("CON1CCC2(CC1)NC(=O)C(c1ccc(Br)cc1C)=C2OC(=O)C(C)(C)C")
"239 to 240 °C"
>>> reported("CON1CCC2(CC1)NC(=O)C(c1cc(C)ccc1C)=C2OC(=O)C(C)C")
"201 to 203 °C"
>>> reported("CON1CCC2(CC1)NC(=O)C(c1c(C)cc(C)cc1C)=C2OC(=O)N(C)CCC#N")
"220 to 224 °C"
>>> reported("CON1CCC2(CC1)NC(=O)C(c1cc(C)ccc1C)=C2OC(=O)OCC(C)(C)C")
"196 to 197 °C"
>>> reported("CCC(=O)OC1=C(c2cc(C)ccc2C)C(=O)NC12CCN(OC)CC2")
"202 to 204 °C"
>>> reported("CCOC(=O)OC1=C(c2c(C)cc(-c3ccc(Cl)cc3)cc2C)C(=O)NC12CCN(OC)CC2")
"217 to 219 °C"
>>> reported("CON1CCC2(CC1)NC(=O)C(c1cc(C)ccc1C)=C2OC(=O)OC(C)C")
"207 to 209 °C"
>>> reported("CON1CCC2(CC1)NC(=O)C(c1ccc(C3CC3)cc1C)C2=O (centres unmarked)")
"191 to 194 °C"
>>> reported("COCCOC1=C(c2cc(C)ccc2C)C(=O)NC12CCN(OC)CC2")
"161 to 164 °C"
>>> reported("CCOC(=O)OC1=C(c2c(C)cc(Br)cc2C)C(=O)NC12CCN(OC)CC2")
"185 to 187 °C"

* * *

readout: melting point

>>> reported("CCOC(=O)OC1=C(c2cc(Br)ccc2C)C(=O)NC12CCN(OC)CC2")
"205 to 209 °C"
>>> reported("C=CCOC1=C(c2cc(C)ccc2C)C(=O)NC12CCN(OC)CC2")
"173 to 174 °C"
>>> reported("CCOC(=O)OC1=C(c2ccc(Br)cc2C)C(=O)NC12CCN(OC)CC2")
"201 to 203 °C"
>>> reported("CCOC(=O)OC1=C(c2cc(OC)ccc2OC)C(=O)NC12CCN(OC)CC2")
"192 to 193 °C"
>>> reported("CCOC(=O)OC1=C(c2ccc(Br)cc2Cl)C(=O)NC12CCN(OC)CC2")
"199 to 201 °C"
>>> reported("C=CCOC(=O)OC1=C(c2cc(Br)ccc2C)C(=O)NC12CCN(OC)CC2")
"157 to 158 °C"
>>> reported("CON1CCC2(CC1)NC(=O)C(c1cc(-c3ccc(Cl)cc3)c(C)cc1C)C2=O (stereo not drawn)")
"168 to 169 °C"
>>> reported("CON1CCC2(CC1)NC(=O)C(c1cc(Br)c(F)cc1C)=C2OC(=O)C(C)(C)C")
"216 to 217 °C"
>>> reported("C=CCOC(=O)OC1=C(c2c(C)cc(Br)cc2C)C(=O)NC12CCN(OC)CC2")
"207 to 211 °C"
>>> reported("CON1CCC2(CC1)NC(=O)C(c1cc(C)ccc1C)=C2OC(C)=O")
"233 to 236 °C"
>>> reported("CON1CCC2(CC1)NC(=O)C(c1ccc(Cl)cc1Cl)=C2OC(=O)N(C)CCC#N")
"171 to 172 °C"
>>> reported("CCCOC(=O)OC1=C(c2cc(C)ccc2C)C(=O)NC12CCN(OC)CC2 [Compound P2]")
"133 to 136 °C"
>>> reported("CCON1CCC2(CC1)NC(=O)C(c1cc(C)ccc1C)C2=O (stereo not drawn)")
"166 to 167 °C"
>>> reported("CON1CCC2(CC1)NC(=O)C(c1cc(C)ccc1C)=C2OC(=O)C(C)(C)C")
"158 to 159 °C"
>>> reported("CON1CCC2(CC1)NC(=O)C(c1c(C)cc(Br)cc1C)C2=O (stereo not drawn)")
"260 to 264 °C"
>>> reported("CON1CCC2(CC1)NC(=O)C(c1c(C)cc(C3CC3)cc1C)C2=O (stereo not drawn)")
"> 250 °C"
>>> reported("CON1CCC2(CC1)NC(=O)C(c1cc(C3CC3)c(C)cc1C)=C2OC(=O)C(C)(C)C")
"218 to 219 °C"
>>> reported("CON1CCC2(CC1)NC(=O)C(c1ccc(Br)cc1Cl)C2=O (stereo not drawn)")
"167 to 169 °C"

* * *

Reported melting point values are given for each entry in this list.
readout: melting point

>>> reported("COCOC1=C(c2cc(C)ccc2C)C(=O)NC12CCN(OC)CC2")
"183 to 185 °C"
>>> reported("CON1CCC2(CC1)NC(=O)C(c1cc(Br)ccc1C)=C2OC(=O)N(C)CCC#N")
"197 to 200 °C"
>>> reported("C#CCOC1=C(c2cc(C)ccc2C)C(=O)NC12CCN(OC)CC2")
"184 to 185 °C"
>>> reported("COc1ccc(COC2=C(c3ccc(Cl)cc3Cl)C(=O)NC23CCN(OC)CC3)cc1")
"111 to 113 °C"
>>> reported("C=CCOC(=O)OC1=C(c2cc(C)ccc2C)C(=O)NC12CCN(OC)CC2")
"140 to 142 °C"
>>> reported("CON1CCC2(CC1)NC(=O)C(c1cc(-c3ccc(Cl)cc3)c(C)cc1C)=C2OC(=O)C(C)(C)C")
"229 to 230 °C"
>>> reported("CCOC(=O)OC1=C(c2cc(-c3ccc(Cl)cc3)ccc2C)C(=O)NC12CCN(OC)CC2")
"209 to 211 °C"

* * *

# System: Alopecurus myosuroides (ALOMY)
# test: Example B pre-emergence herbicidal activity, glasshouse pot test
# Assay type: in vivo
# run-conditions: 312 h, first table (headed Post-Emergence, taken as pre-emergence), rate 250 g/ha, evaluated after 13 days, read-out: ALOMY activity (100=total damage to plant; 0=no damage to plant)
readout: pest or weed control at 250 g/ha (%)

>>> reported("CCOC(=O)OC1=C(c2cc(C3CC3)c(C)cc2C)C(=O)NC12CCN(OC)CC2")
10
>>> reported("CCOC(=O)OC1=C(c2cc(-c3ccc(Cl)cc3)c(C)cc2C)C(=O)NC12CCN(OC)CC2")
0
>>> reported("CON1CCC2(CC1)NC(=O)C(c1ccc(Br)cc1C)=C2OC(=O)C(C)(C)C")
40

* * *

readout: melting point

>>> reported("CCON1CCC2(CC1)NC(=O)C(c1ccc(Cl)cc1Cl)C2=O (stereo not shown)")
"244 to 245 °C"
>>> reported("CCOC(=O)OC1=C(c2c(Cl)cccc2Cl)C(=O)NC12CCN(OC)CC2")
"229 to 232 °C"
>>> reported("CCN(CC)C(=O)OC1=C(c2cc(C)ccc2C)C(=O)NC12CCN(OC)CC2")
"129 to 131 °C"
>>> reported("CON1CCC2(CC1)NC(=O)C(c1cc(-c3ccc(F)cc3)c(F)cc1C)=C2OC(=O)C(C)(C)C")
"101 to 104 °C"
>>> reported("CCOC(=O)OC1=C(c2cc(C)ccc2C)C(=O)NC12CCN(OCC)CC2")
"167 to 168 °C"
>>> reported("C=CCOC(=O)OC1=C(c2ccc(Cl)c(Cl)c2)C(=O)NC12CCN(OC)CC2")
"210 to 213 °C"
>>> reported("CON1CCC2(CC1)NC(=O)C(c1c(C)cc(C3CC3)cc1C)=C2OC(=O)C(C)(C)C")
"> 200 °C"
>>> reported("CON1CCC2(CC1)NC(=O)C(c1ccc(Cl)cc1Cl)C2=O (stereo not shown)")
"221 to 223 °C"
>>> reported("CON1CCC2(CC1)NC(=O)C(c1ccc(Br)cc1Cl)=C2OC(=O)C(C)(C)C")
"223 to 225 °C"
>>> reported("CCON1CCC2(CC1)NC(=O)C(c1ccc(Cl)cc1Cl)=C2OC(=O)C(C)(C)C")
"165 to 166 °C"
>>> reported("CCOC(=O)OC1=C(c2ccc(Cl)cc2Cl)C(=O)NC12CCN(OC)CC2")
"187 to 189 °C"
>>> reported("C=CCOC(=O)OC1=C(c2cc(OC)ccc2OC)C(=O)NC12CCN(OC)CC2")
"156 to 157 °C"
>>> reported("CCOC(=O)OC1=C(c2c(C)cc(C)cc2C)C(=O)NC12CCN(OCC)CC2")
"174 to 175 °C"
>>> reported("CCOC(=O)OC1=C(c2cc(C3CC3)c(C)cc2C)C(=O)NC12CCN(OC)CC2")
"174 to 176 °C"
>>> reported("CCOC(=O)OC1=C(c2ccc(Cl)c(Cl)c2)C(=O)NC12CCN(OC)CC2")
"222 to 224 °C"
>>> reported("COc1ccc(OC)c(C2=C(OC(=O)N(C)CCC#N)C3(CCN(OC)CC3)NC2=O)c1")
"187 to 189 °C"
